# Test system: SK-MEL-2
# assay_protocol: NCI screening panel, SK-MEL-2 (Melanoma)
# Format: cell-based, human
readout_name: Log10LC50

Data request: Record request: Log10LC50 value, item CC(C)C[C@H](NC(=O)[C@H](COC(F)F)NC(=O)[C@H](COC(F)F)NC(=O)[C@H](COC(F)F)NC(=O)CN1CCOCC1)C(=O)[C@@]1(C)CO1
Data returned: −5.76

Data request: Check CC(C)C[C@H](NC(=O)[C@H](COC(F)F)NC(=O)CN1CCOCC1)C(=O)N[C@@H](COC(F)F)C(=O)N[C@@H](CC(C)C)C(=O)[C@@]1(C)CO1 too.
Data returned: >−4.00

Now look at this one.
Data request: Record request: Log10LC50 value, item CC(C)C[C@H](NC(=O)[C@H](COC(F)F)NC(=O)[C@H](COC(F)F)NC(=O)[C@H](CCc1ccccc1)NC(=O)CN1CCOCC1)C(=O)[C@@]1(C)CO1
Data returned: >−4.00
